experimental.target: T1, human PD-1 protein (human, UniProt Q15116 25-167, limits assumed)
T1 construct: also called human PD-1 antigen
T1 sequence (Q15116 25-167 limits assumed): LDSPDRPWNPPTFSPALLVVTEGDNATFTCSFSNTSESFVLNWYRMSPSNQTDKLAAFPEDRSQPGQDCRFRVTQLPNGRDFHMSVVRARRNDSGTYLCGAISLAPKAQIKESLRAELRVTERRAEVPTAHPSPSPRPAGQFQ
protocol.summary: SPR; ratio against the U299-WT parent
Classify as follows. Reported Ratio (kD) greater than or equal to 7: met. Reported Ratio (kD) below: not met.

INSERT INTO measurements (binder, discrete_label) VALUES
  ('AHF16563 (antibody, V domains shown) VH: QVQLVQSGAEVKKPGASVKVSCKASGYTFTGYWMHWVRQAPGQGLEWIGMIHPNSDTTVYNWKFKNRVTMTRDTSISTAYMELSRLRSDDTAVYYCAGTDQEAWMGFWGQGTTVTVSS VL: DIVMTQTPLSLSVTPGQPASISCRSSQNIVHSQGDTYLEWYLQKPGQSPQLLIYKVSKRFSGVPDRFSGSGSGTDFTLKISRVEAEDVGVYYCFQGSHVPWTFGGGTKVEIK', 'met'),
  ('AHF16558 (antibody, V domains shown) VH: QVQLVQSGAEVKKPGASVKVSCKASGYTFTGYWMHWVRQAPGQGLEWIGMIHPNSDTTTYNEKFKNRVTMTRDTSISTAYMELSRLRSDDTAVYYCAGTDQEAWHAFWGQGTTVTVSS VL: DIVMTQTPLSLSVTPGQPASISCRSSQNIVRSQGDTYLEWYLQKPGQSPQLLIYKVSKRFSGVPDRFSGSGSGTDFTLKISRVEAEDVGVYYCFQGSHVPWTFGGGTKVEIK', 'met'),
  ('AHF16564 (antibody, V domains shown) VH: QVQLVQSGAEVKKPGASVKVSCKASGYTFTGYWMHWVRQAPGQGLEWIGMIHPNSDTTTYNEKFKNRVTMTRDTSISTAYMELSRLRSDDTAVYYCAGTDQEAWAGFWGQGTTVTVSS VL: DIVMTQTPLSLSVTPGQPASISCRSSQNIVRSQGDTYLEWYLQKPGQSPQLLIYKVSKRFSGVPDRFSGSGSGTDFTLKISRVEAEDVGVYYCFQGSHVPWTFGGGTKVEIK', 'met'),
  ('AHF16569 (antibody, V domains shown) VH: QVQLVQSGAEVKKPGASVKVSCKASGYTFTGYWMHWVRQAPGQGLEWIGMIHPNSDTTIYNWKFKNRVTMTRDTSISTAYMELSRLRSDDTAVYYCAGTDQEAWAAFWGQGTTVTVSS VL: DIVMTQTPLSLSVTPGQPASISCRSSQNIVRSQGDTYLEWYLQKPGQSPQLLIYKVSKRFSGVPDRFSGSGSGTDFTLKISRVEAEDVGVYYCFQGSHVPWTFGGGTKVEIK', 'not met'),
  ('AHF16561 (antibody, V domains shown) VH: QVQLVQSGAEVKKPGASVKVSCKASGYTFTGYWMHWVRQAPGQGLEWIGMIHPNSDTTIYNEKFKNRVTMTRDTSISTAYMELSRLRSDDTAVYYCAGTDQAAWAGFWGQGTTVTVSS VL: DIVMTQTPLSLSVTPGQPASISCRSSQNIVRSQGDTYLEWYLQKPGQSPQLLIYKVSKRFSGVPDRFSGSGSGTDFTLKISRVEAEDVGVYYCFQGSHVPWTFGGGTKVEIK', 'met');
